System: serotonin and 5-HIAA in rat brain
experimentalProtocol: animal or person
Format: in vivo, rat (Wistar)
experimentalParameters: sc, subcutaneous, 1 h after injection, p<0.05 vs control, read-out: Minimum effective dose suppressing 5-HIAA
minimal effective dose by entry:
reportedMetric: minimal effective dose (mg/kg)

>>> reportedresult("CN1C[C@H](CC#N)C=C2c3cccc4c3[C@@H](CN4)C[C@H]21")
0.1
>>> reportedresult("CSC[C@@H]1C=C2c3cccc4c3[C@@H](CN4)C[C@H]2N(C)C1")
0.1
>>> reportedresult("CN1C[C@H](CO)C=C2c3cccc4c3[C@@H](CN4)C[C@H]21 [Example 3, (3β)-2,3-Dihydrolysergol]")
1
>>> reportedresult("C[C@H]1C=C2c3cccc4c3[C@@H](CN4)C[C@H]2N(C)C1 [Example 2, (3β)-2,3-Dihydroisolysergine]")
0.001
>>> reportedresult("C[C@@H]1C=C2c3cccc4c3[C@@H](CN4)C[C@H]2N(C)C1 [Example 1, (3β)-2,3-Dihydrolysergine]")
0.03

---

target: 5-HT1 receptor
experimentalProtocol: binding to 5-HT1 sites ([3H]serotonin displacement, rat brain frontal cortex)
experimentalParameters: 2 nM [3H]serotonin; rat frontal cortex
pIC50: −log10 of the molar value.
Catalogue of compounds with associated pIC50
reportedMetric: pIC50

>>> reportedresult("CSC[C@@H]1C=C2c3cccc4c3[C@@H](CN4)C[C@H]2N(C)C1")
7.70
>>> reportedresult("CN1C[C@H](CC#N)C=C2c3cccc4c3[C@@H](CN4)C[C@H]21")
7.70
>>> reportedresult("C[C@H]1C=C2c3cccc4c3[C@@H](CN4)C[C@H]2N(C)C1 [Example 2, (3β)-2,3-Dihydroisolysergine]")
7.70
